pKi: −log10 of the molar value.
Notes on pKi obtained with H3 receptors (Cavia porcellus, UniProt Q9JI35).
Sequence (Q9JI35 whole entry): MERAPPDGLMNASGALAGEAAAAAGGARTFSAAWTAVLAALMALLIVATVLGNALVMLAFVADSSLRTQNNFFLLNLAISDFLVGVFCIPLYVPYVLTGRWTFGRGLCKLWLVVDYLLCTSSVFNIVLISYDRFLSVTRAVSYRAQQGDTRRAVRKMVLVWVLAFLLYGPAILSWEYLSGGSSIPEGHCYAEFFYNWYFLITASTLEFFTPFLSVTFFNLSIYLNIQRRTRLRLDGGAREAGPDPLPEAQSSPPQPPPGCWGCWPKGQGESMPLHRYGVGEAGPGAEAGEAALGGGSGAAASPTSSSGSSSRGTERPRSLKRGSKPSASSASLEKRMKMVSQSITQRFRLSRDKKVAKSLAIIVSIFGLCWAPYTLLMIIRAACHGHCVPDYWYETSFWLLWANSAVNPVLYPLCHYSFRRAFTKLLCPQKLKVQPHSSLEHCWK

Solved entries:
CO/N=C(/c1ccc(Cl)cc1)C1CCN(C(=O)C2CCN(Cc3ccncc3)CC2)CC1 7.80 to 9.08
CO/N=C(\c1ccccn1)C1CCN(C(=O)C2CCN([C@@H](C)c3ccnc(N)c3)CC2)CC1 7.80 to 9.08

Moving on to another molecule below.
[Q] Test system H3 receptors (Cavia porcellus, UniProt Q9JI35); read-out pKi; what value for Nc1cc(CN2CCC(C(=O)N3CCC(C(=O)c4ccccn4)CC3)CC2)ccn1 ?
[A] 7.80 to 9.08

---

- assayedTarget: human histamine H3 receptor (Homo sapiens)
- Sequence (Q9Y5N1 whole entry): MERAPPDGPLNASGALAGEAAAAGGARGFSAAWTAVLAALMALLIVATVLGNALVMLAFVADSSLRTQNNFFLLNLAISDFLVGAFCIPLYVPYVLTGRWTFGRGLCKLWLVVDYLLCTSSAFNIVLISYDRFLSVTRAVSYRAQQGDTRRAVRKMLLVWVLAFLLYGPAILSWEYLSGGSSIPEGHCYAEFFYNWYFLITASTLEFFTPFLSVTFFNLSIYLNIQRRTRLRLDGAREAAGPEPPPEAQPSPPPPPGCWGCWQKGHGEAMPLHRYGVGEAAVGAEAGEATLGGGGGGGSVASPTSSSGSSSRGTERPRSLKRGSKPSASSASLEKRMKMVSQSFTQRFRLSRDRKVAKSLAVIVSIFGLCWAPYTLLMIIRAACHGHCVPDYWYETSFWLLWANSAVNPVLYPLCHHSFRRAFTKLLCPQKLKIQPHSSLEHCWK
reportedEndpoint: Ki (nM)
Supply the numeric figure in nM, leaving out any unit text.

[Q] Test system human histamine H3 receptor (Homo sapiens); read-out Ki; what value for CO/N=C(/c1ccccn1)C1CCN(C(=O)C2CCN(Cc3cnc(N)nc3)CC2)CC1 ?
[A] 25
